- method: NCI Yeast Anticancer Drug Screen. Data for the cln2 rad14 strain (AID 165);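 note: 0% = growth equal to vehicle treated cultures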
- run_parameters: S. cerevisiae cln2 rad14 strain, at 5.0 µM (retest, dose inferred, filed as 0.5), stronger effect = higher value
The panel holds about 79,000 compounds, 15% with a hit somewhere; the sample as a whole holds those more often.
metric_name: growth inhibition (%)
Give the quantity in %, number only.

Worked cases, growth inhibition given:
{"molecule": "COc1ccc(C2c3cc4c(cc3OC(NNC(N)=O)C2C)OCO4)cc1 (centres undefined)", "quantitative_readout": -4}
{"molecule": "CC(NC(=O)C(N)Cc1ccccc1)C(=O)NC1C(CO)OC(n2cnc3c(N)ncnc32)C1O (centres undefined)", "quantitative_readout": 0}
{"molecule": "OCC1OC(Sc2ncc[nH]2)C(O)C(O)C1O (centres undefined)", "quantitative_readout": 11}

Here is another molecule to look at.
// query growth inhibition value for entry C=CC(=O)O
0

---

- method: NCI Yeast Anticancer Drug Screen. Data for the rad50 strain (AID 155);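 note: 0% = growth of vehicle-only cultures of the same strain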
- run_parameters: S. cerevisiae rad50 strain growth inhibition; at 50.0 µM
The panel holds about 79,000 compounds, 15% with a hit somewhere; the sample as a whole holds those more often. The source made the active and inactive calls. No stated cut-off is given here; in the data, active means growth inhibition above about 70%; inactive means the rest.
Just give me one of these, please: 1 (yes) (active), 0 (no) (inactive)

As a guide, the following entries are already answered.
{"compound": "COc1nc(N)c(NC2OCC(O)C(O)C2O)c(=O)n1C (centres undefined)", "label_value": "0 (no)"}
{"compound": "COc1ccc2nc3cc(Cl)ccc3c(NCCCNCc3cc(OC)c(OC)c(OC)c3)c2c1", "label_value": "1 (yes)"}
{"compound": "CCCCCCCCCCCCCCCC(=O)NCC[N+](C)(C)C", "label_value": "1 (yes)"}
{"compound": "CCCCN(CCCC)C(Cl)=Nc1ccccc1", "label_value": "1 (yes)"}
{"compound": "COc1cccc(NC(=S)N2CCCCC2)c1", "label_value": "0 (no)"}
{"compound": "CC[N](CC)[Ge]([CH2]C)[CH2]C.C[CH2][Ge]([CH2]C)[CH2]C", "label_value": "1 (yes)"}
{"compound": "O=C(/C(=C\\c1ccc(Cl)c(Cl)c1)c1ccccc1)c1ccc(O)cc1", "label_value": "1 (yes)"}
{"compound": "O=C(CC1=Nc2nnc(CCCCCCCc3nnc4n3C(=O)C(CC(=O)c3ccc5ccccc5c3)=N4)n2C1=O)c1ccc2ccccc2c1", "label_value": "0 (no)"}

Field: next compound
GET /call?item= CCCCCCCCCCCCN returns the recorded outcome of this test.
1 (yes)

---

- method: NCI Yeast Anticancer Drug Screen. Data for the mlh1 rad18 strain (AID 175)
- run_parameters: S. cerevisiae mlh1 rad18 strain growth inhibition; at 50.0 µM (retest, dose inferred, filed as 5.0)
Compounds without any hit were thinned out: in the full panel of roughly 79,000, 15% have a hit. The source made the active and inactive calls. No stated cut-off is given here; in the data, active means growth inhibition above about 70%; inactive means the rest.
Just give me one of these, please: active, inactive

As a guide, the following entries are already answered.
{"compound": "O=C1Nc2ccccc2C1(O)C/C(=N/O)c1ccc2ccccc2c1 (centres undefined)", "label_value": "inactive"}
{"compound": "CCCCCCCCCCCCCCCCCCOCC(O)CO (centres undefined)", "label_value": "inactive"}
{"compound": "CC1(c2ccccc2)c2ccccc2N(c2ccccc2)C(=O)C1O (centres undefined)", "label_value": "active"}

Field: next compound
GET /call?item= Nc1cc(F)c2c(c1)Cc1ccccc1-2 returns the recorded outcome of this test.
active
